Molecular target: T1, TX1BP3, O14907
T1 sequence (O14907 10-122, limits assumed, looked up): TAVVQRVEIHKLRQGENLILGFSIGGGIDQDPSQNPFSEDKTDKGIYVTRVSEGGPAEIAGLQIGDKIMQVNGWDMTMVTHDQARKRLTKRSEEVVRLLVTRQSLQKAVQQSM
Test: holdup assay
Set-up: key: below the threshold = too weak to quantify, mostly under pKd 3.1 to 4
Conditions: plain residues with an end cap or a label only (N-terminal biotin on a linker: ado-ado)
Property: pKd

NTALVESEDL [PALLS, Q8WX93;Q8WX93-1]: below the threshold
QKASRNESTF [POLR1D, P0DPB6]: below the threshold
VKQYADVEGF [HNRNPK, P61978;P61978-2]: 3.97
ELKAEDEVQI [DCHS2, Q6V1P9]: below the threshold
RDYTQSSSSL [GRM5, P41594]: 3.53
DAAHHDESNC [FMNL3, Q8IVF7]: below the threshold
PAALPESTHM [SLC9A3, P48764]: below the threshold
PLATCDETSI [SEMA4F, O95754]: below the threshold
RGKNRRQSIF [CDK18, Q07002]: below the threshold
YAEKRMLTEV [KCNA6, P17658]: 4.29

Which pKd value is on record for NKSEPFLTWL [WWTR1, Q9GZV5] ?
4.49

Which pKd value is on record for RSPVATATSC [DUSP5, Q16690] ?
below the threshold

Which pKd value is on record for DSEEELPTRL [GRK6, P43250] ?
below the threshold

Which pKd value is on record for KSRPENGTVC [TMEM178B, H3BS89] ?
below the threshold

Which pKd value is on record for MLPANYVEAI [NEB, P20929] ?
below the threshold

Which pKd value is on record for AKADAQESRL [PLCB2, Q00722] ?
3.96
